# Lookup of reported kon keyed by entry
- target-under-test: B7-H4 purified monomeric recombinant human protein (Homo sapiens, UniProt Q7Z7D3)
- Sequence (Q7Z7D3 25-259): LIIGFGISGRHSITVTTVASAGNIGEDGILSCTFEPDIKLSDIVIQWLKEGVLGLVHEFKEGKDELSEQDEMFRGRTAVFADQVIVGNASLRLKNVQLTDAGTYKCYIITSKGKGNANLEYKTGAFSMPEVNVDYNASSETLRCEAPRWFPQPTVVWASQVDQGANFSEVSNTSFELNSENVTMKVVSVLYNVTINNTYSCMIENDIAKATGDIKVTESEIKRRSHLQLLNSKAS
- assay-remarks: SPR
Your answer should be a plain number; it is taken to be in M⁻¹ s⁻¹.

Some solved entries appear below for comparison.
binder | kon / M⁻¹ s⁻¹
B10 (scFv, V domains shown) VH: EVQLVESGGGVVQPGRSLRLSCAASGFTFSTRAMNWVRQAPGKGLEWVSAISGTGDTTYYADSVKGRFTISRDNSKNTLYLQMNSLRAEDTAVYYCARKRWYGMDVWGQGTTVTVSS VL: SYELTQPPSVSVAPGKTARITCGGNNIGSKSVHWYQQKPGQAPVLVVYDDSDRPSGIPERFSGSNSGNTATLTISRVEAGDEADYYCQVWGRYQMIFGTGTKLTVL | 260000
B02 (scFv, V domains shown) VH: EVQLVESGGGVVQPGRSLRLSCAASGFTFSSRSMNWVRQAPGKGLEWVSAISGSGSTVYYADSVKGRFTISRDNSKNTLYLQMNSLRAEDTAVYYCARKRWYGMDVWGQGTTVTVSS VL: SYELTQPPSVSVAPGKTARITCGGNNIGVKSVHWYQQKPGQAPVLVVYDDSDRSPGIPERFSGSNSGNTATLTISRVEAGDEADYYCQVWDSRTYVFGTGTKLTVL | 180000

For the next question, use this binder.
kon for A09 (scFv, V domains shown) VH: EVQLVESGGGVVQPGRSLRLSCAASGFTFSSRSMNWVRQAPGKGLEWVSAISGSGLTSYYADSVKGRFTISRDNSKNTLYLQMNSLRAEDTAVYYCARKRWYGMDVWGQGTTVTVSS VL: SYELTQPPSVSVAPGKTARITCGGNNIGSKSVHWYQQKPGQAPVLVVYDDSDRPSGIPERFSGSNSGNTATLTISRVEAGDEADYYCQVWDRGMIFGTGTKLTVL is 160000
